test system: LMO 49594 (Listeria monocytogenes (ATCC49594)); assay: Microtitre plate assay, IC90 determination; format: cell-based; settings: Listeria monocytogenes (ATCC49594)
# class assignment by measured IC90 (μg/ml) LMO 49594: lo (below 9 µg/mL), mid (9 µg/mL to below 20 µg/mL), hi (20 µg/mL or more)

[
  {
    "compound": "COc1nc2ccc(Br)cc2cc1C(c1ccccc1)C(O)(CCCCN(C)C)c1ccc2ccccc2c1 (stereo not drawn) [Compound 25]",
    "answerLabel": "mid"
  },
  {
    "compound": "COc1nc2ccc(Br)cc2cc1C(c1ccccc1)C(O)(CCCCN(C)C)c1ccc2ccccc2c1 (stereo not drawn) [Compound 23]",
    "answerLabel": "hi"
  },
  {
    "compound": "COc1nc2ccc(Br)cc2cc1C(c1ccccc1)C(O)(CCCN(C)C)c1ccccc1 (stereo not drawn) [Compound 45]",
    "answerLabel": "hi"
  },
  {
    "compound": "COc1nc2ccc(Br)cc2cc1C(c1ccccc1)C(O)(CCCCN(C)C)c1ccc2ccccc2c1 (stereo not drawn) [Compound 22]",
    "answerLabel": "mid"
  },
  {
    "compound": "COc1nc2ccc(Br)cc2cc1C(c1ccccc1)C(O)(CCCCN(C)C)c1ccc2ccccc2c1 (stereo not drawn) [Compound 17]",
    "answerLabel": "lo"
  },
  {
    "compound": "COc1nc2ccc(Br)cc2cc1C(c1ccccc1)C(O)(CCCN(C)C)c1ccc2ccccc2c1 (stereo not drawn) [Compound 46]",
    "answerLabel": "hi"
  },
  {
    "compound": "COc1ccc2cc(C(O)(CCCCN(C)C)C(c3ccccc3)c3cc4cc(Br)ccc4nc3OC)ccc2c1 (single isomer, unassigned) [Compound 5]",
    "answerLabel": "lo"
  },
  {
    "compound": "CCN(CC)CCCC(O)(c1ccc2ccccc2c1)C(c1ccccc1)c1cc2cc(Br)ccc2nc1OC (stereo not drawn) [Compound 52]",
    "answerLabel": "mid"
  },
  {
    "compound": "COc1ccc2cc(C(O)(CCCCN(C)C)C(c3ccccc3)c3cc4cc(Br)ccc4nc3OC)ccc2c1 (single isomer, unassigned) [Compound 6]",
    "answerLabel": "mid"
  },
  {
    "compound": "COc1nc2ccc(Br)cc2cc1C(c1ccccc1)C(O)(CCCN1CCCC1)c1ccc2ccccc2c1 (racemic) [Compound 49]",
    "answerLabel": "hi"
  },
  {
    "compound": "COc1nc2ccc(Br)cc2cc1C(c1ccccc1)C(O)(CCCN(C)C)c1ccccc1 (stereo not drawn) [Compound 44]",
    "answerLabel": "mid"
  },
  {
    "compound": "COc1nc2ccc(Br)cc2cc1C(c1ccccc1)C(O)(CCCCN(C)C)c1ccc2ccccc2c1 (stereo not drawn) [Compound 24]",
    "answerLabel": "lo"
  },
  {
    "compound": "COc1nc2ccc(Br)cc2cc1C(c1ccccc1)C(O)(CCCN1CCCC1)c1ccc2ccccc2c1 (racemic) [Compound 48]",
    "answerLabel": "hi"
  },
  {
    "compound": "COc1nc2ccc(Br)cc2cc1C(c1ccccc1)C(O)(CCCCN(C)C)c1ccccc1 (stereo not drawn) [Compound 21]",
    "answerLabel": "mid"
  },
  {
    "compound": "COc1nc2ccc(Br)cc2cc1C(c1ccccc1)C(O)(CCCN(C)C)c1ccc2ccccc2c1 (stereo not drawn) [Compound 47]",
    "answerLabel": "lo"
  }
]
